B1: LINE1-full (parent)
chain: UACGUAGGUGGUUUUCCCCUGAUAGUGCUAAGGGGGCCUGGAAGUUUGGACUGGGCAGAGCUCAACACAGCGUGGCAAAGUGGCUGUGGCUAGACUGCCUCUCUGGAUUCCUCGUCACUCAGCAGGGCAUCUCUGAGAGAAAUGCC

Variants of: B1
Experiment: self-cleavage, relative activity (ratio to wild type); higher = more cleavage; in vitro, sequencing; the parent is a self-cleaving ribozyme
Entries are grouped by self-cleavage into these classes: one = under 0.7, two = from 0.7 up to 1, three = 1 and over

> print(dat)
    variant.identifier  assigned.label
 1         A107C G114A           three
 2          G89A U104A             one
 3           U39C A42U             two
 4          G33A A138G           three
 5          U12G A129U           three
 6            A2C G89A             one
 7          C38U U134C           three
 8         G125U U143C           three
 9           U20C G60U             one
10           U12A U91A             two
11           U29C A30U           three
